What thermal stability score was measured for each of the following?
- System: HeLa Kyoto;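 also: synchronized HeLa Kyoto cells, proteins quantified by TMT10plex mass spectrometry, three biological replicates, mitosis taken 0.5 h after nocodazole release, G1/S directly after double thymidine block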
- PROTOCOL_DESCRIPTION: thermal stability score vs G1/S (z-score of summed log2 fold changes over temperatures); higher = more thermally stable than in G1/S
- TEST_PARAMETERS: cell cycle stage: early G1 (4.5 h after nocodazole release)

Please indicate recorded thermal stability score of MDSALSDPHNGSAEAGGPTNSTTRPPSTPEGIALAYGSLLLMALLPIFFGALRSVRCARGKNASDMPETITSRDAARFPIIASCTLLGLYLFFKIFSQEYINLLLSMYFFVLGILALSHTISPFMNKFFPASFPNRQYQLLFTQGSGENKEEIINYEFDTKDLVCLGLSSIVGVWYLLRKHWIANNLFGLAFSLNGVELLHLNNVSTGCILLGGLFIYDVFWVFGTNVMVTVAKSFEAPIKLVFPQDLLEKGLEANNFAMLGLGDVVIPGIFIALLLRFDISLKKNTHTYFYTSFAAYIFGLGLTIFIMHIFKHAQPALLYLVPACIGFPVLVALAKGEVTEMFSYEESNPKDPAAVTESKEGTEASASKGLEKKEK [HM13] measured with HeLa Kyoto.
-1.07

Please indicate recorded thermal stability score of MAVSESQLKKMVSKYKYRDLTVRETVNVITLYKDLKPVLDSYVFNDGSSRELMNLTGTIPVPYRGNTYNIPICLWLLDTYPYNPPICFVKPTSSMTIKTGKHVDANGKIYLPYLHEWKHPQSDLLGLIQVMIVVFGDEPPVFSRPISASYPPYQATGPPNTSYMPGMPGGISPYPSGYPPNPSGYPGCPYPPGGPYPATTSSQYPSQPPVTTVGPSRDGTISEDTIRASLISAVSDKLRWRMKEEMDRAQAELNALKRTEEDLKKGHQKLEEMVTRLDQEVAEVDKNIELLKKKDEELSSALEKMENQSENNDIDEVIIPTAPLYKQILNLYAEENAIEDTIFYLGEALRRGVIDLDVFLKHVRLLSRKQFQLRALMQKARKTAGLSDLY [TSG101] measured with HeLa Kyoto.
-0.385

Please indicate recorded thermal stability score of MFSRAGVAGLSAWTLQPQWIQVRNMATLKDITRRLKSIKNIQKITKSMKMVAAAKYARAERELKPARIYGLGSLALYEKADIKGPEDKKKHLLIGVSSDRGLCGAIHSSIAKQMKSEVATLTAAGKEVMLVGIGDKIRGILYRTHSDQFLVAFKEVGRKPPTFGDASVIALELLNSGYEFDEGSIIFNKFRSVISYKTEEKPIFSLNTVASADSMSIYDDIDADVLQNYQEYNLANIIYYSLKESTTSEQSARMTAMDNASKNASEMIDKLTLTFNRTRQAVITKELIEIISGAAALD [ATP5C1] measured with HeLa Kyoto.
-0.727

Please indicate recorded thermal stability score of MDFLMSGLAACGACVFTNPLEVVKTRMQLQGELQAPGTYQRHYRNVFHAFITIGKVDGLAALQKGLAPALLYQFLMNGIRLGTYGLAEAGGYLHTAEGTHSPARSAAAGAMAGVMGAYLGSPIYMVKTHLQAQAASEIAVGHQYKHQGMFQALTEIGQKHGLVGLWRGALGGLPRVIVGSSTQLCTFSSTKDLLSQWEIFPPQSWKLALVAAMMSGIAVVLAMAPFDVACTRLYNQPTDAQGKGLMYRGILDALLQTARTEGIFGMYKGIGASYFRLGPHTILSLFFWDQLRSLYYTDTK [SLC25A35] measured with HeLa Kyoto.
0.653
